- System: HBV genotype D (U955551)
- methodNotes: microbe, parasite or virus in culture
- Assay type: cell-based
- measurementParameters: Hepatitis B virus, HepG2
endpoint: pEC50
Please keep in mind that pEC50 is minus log10 of the molar concentration; only the number is needed.

Looking for the measured pEC50 of Cc1cn(C2OC(COP(=O)(NC(C)C(=O)OC(C)C)Oc3ccccc3)C(O)C2F)c(=O)[nH]c1=O (stereo not shown) [ATI-2173] , can you help?
6.63
